Listing of entries alongside the reported phosphorylation enrichment.
# Measurement Target: EPHB2 (UniProt P29323)
# Sequence (P29323 whole entry, looked up): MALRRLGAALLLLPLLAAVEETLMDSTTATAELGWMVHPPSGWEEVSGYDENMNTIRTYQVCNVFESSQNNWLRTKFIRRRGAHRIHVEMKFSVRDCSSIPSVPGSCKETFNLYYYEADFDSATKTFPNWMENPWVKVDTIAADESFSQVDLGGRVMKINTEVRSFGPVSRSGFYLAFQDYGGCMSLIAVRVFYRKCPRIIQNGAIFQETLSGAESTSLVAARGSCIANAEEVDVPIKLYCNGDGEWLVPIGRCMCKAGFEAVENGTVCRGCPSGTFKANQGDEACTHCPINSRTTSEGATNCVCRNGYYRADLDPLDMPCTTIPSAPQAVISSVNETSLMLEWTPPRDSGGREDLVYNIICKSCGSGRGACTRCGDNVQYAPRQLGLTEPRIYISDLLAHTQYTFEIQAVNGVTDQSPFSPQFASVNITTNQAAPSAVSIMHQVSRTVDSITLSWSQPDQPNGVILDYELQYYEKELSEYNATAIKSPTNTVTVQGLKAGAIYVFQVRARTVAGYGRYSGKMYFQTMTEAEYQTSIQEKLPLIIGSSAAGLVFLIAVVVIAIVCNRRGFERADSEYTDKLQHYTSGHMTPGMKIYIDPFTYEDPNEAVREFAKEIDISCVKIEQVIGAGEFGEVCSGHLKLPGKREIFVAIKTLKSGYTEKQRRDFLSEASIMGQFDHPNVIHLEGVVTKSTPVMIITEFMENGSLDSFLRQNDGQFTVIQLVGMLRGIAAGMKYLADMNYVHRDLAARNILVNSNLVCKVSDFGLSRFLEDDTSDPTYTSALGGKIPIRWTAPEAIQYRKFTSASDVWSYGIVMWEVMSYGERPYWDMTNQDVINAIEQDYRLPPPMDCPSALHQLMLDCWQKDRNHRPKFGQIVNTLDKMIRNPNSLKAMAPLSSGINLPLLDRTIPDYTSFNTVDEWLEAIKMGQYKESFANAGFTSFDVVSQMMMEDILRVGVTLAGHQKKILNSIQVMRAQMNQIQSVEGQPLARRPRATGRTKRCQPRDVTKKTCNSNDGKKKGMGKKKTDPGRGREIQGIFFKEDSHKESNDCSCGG
# Test Name: phosphorylation enrichment, bacterial display (enrichment ratio); higher = better substrate or ligand; peptides without Tyr show the background;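 note: 11-residue human phosphosite peptides and single-mutation variants displayed on the E. coli surface, counted by deep sequencing, each peptide's frequency after selection divided by its frequency in the unselected input library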;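 note: frequency after pTyr selection over input frequency; kinase dosed for 20-30% of maximal phosphorylation in three min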
Please reply with the number alone, leaving off any unit.

Quick one: give measured phosphorylation enrichment for IKNFKYGIEEH [GJA1_Y137_K134N]
0.508

Name the recorded phosphorylation enrichment of the item SVGVPYEPPEV [TP53_Y220_V217G] in your answer.
0.57

Give the value of phosphorylation enrichment reported for the following: EPTPGYEVSQR [TSC2_Y1788_G1791S]
0.549

Provide one value: measured phosphorylation enrichment of TGQERYRAITS [RAB11B_Y73_A68T]
0.291

// fetch phosphorylation enrichment given entry GRPLFYWLTGC [LYZL6_Y140]
0.491

Consider the sequence SPPPAYTPMSG [ERBB4_Y1056] . State its measured phosphorylation enrichment.
0.429

Give reported phosphorylation enrichment value for RLLVVYSWTQR [HBB_Y36_P37S]
0.593

Tell me its phosphorylation enrichment given KDAGDYKFKAK [LRIT3_Y326_C328Y_YF] as the entry.
0.259

In one line, give reported phosphorylation enrichment of the entry CTTIHYFFMCN [TP53_Y234_N235Y_YF] .
0.534

Note phosphorylation enrichment for the sequence shown: IHKEFYDGLFP [BCR_Y561]
0.743

Return the recorded phosphorylation enrichment value; entry: DGYIDYAEFAK [MCFD2_Y138]
0.579

# return recorded phosphorylation enrichment for entry SISLRYEGRVF [ABL1_Y167_YF]
0.703

Please give measured phosphorylation enrichment of the following entry: DTDSSYCIPIA [GAB1_Y373_T377I]
0.721

Quickly give me recorded phosphorylation enrichment for ILDEAYVMAIV [EGFR_Y764_S768I]
0.686

* * *

# Measurement Target: Jak2 (UniProt O60674)
# Sequence (O60674 whole entry, looked up): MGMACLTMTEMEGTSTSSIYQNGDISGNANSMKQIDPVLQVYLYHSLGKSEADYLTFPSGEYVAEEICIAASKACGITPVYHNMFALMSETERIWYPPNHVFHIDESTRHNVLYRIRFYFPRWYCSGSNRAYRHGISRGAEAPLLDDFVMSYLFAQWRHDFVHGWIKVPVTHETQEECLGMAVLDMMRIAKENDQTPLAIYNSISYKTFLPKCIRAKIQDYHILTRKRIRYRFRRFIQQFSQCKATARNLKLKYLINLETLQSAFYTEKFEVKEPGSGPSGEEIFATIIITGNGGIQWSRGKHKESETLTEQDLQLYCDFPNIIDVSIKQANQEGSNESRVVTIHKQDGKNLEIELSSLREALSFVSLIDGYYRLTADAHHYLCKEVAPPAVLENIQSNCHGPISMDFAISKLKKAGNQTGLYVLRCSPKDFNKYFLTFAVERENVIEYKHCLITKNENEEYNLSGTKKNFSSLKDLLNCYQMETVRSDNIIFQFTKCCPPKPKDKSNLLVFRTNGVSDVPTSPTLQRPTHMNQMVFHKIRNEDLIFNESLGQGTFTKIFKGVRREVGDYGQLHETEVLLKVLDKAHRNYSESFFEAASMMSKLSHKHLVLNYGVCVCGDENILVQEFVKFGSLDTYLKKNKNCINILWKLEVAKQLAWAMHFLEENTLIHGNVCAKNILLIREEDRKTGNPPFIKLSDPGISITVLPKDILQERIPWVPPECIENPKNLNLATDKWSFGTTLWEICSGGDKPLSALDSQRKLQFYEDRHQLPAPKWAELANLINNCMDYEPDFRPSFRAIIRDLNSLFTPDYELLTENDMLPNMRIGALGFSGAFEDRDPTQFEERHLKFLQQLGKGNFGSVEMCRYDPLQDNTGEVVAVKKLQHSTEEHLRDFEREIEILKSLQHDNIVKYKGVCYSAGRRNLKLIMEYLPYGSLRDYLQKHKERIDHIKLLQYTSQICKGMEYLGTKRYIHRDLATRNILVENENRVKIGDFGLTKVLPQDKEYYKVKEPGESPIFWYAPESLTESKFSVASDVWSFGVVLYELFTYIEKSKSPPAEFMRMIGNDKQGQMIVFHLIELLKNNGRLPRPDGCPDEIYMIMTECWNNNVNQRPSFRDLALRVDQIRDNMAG
# Test Name: phosphorylation enrichment, bacterial display (enrichment ratio); higher = better substrate or ligand; peptides without Tyr show the background
Measured phosphorylation enrichment values are reported for all entries that follow.
Please give only the number in your answer, with no unit.

>>> reading("RAEAQYLLVSN [LRIG1_Y1054]")
0.933
>>> reading("AAVDTVCRHNY [HLA-DRB1_Y107_Y107V]")
0.739

Could you now look at the following sequence, please?
Recall and state the measured phosphorylation enrichment for RLAKTYETTLE [ALB_Y377] .
1.09

* * *

# Measurement Target: Fes (UniProt P07332)
# Sequence (P07332 whole entry, looked up): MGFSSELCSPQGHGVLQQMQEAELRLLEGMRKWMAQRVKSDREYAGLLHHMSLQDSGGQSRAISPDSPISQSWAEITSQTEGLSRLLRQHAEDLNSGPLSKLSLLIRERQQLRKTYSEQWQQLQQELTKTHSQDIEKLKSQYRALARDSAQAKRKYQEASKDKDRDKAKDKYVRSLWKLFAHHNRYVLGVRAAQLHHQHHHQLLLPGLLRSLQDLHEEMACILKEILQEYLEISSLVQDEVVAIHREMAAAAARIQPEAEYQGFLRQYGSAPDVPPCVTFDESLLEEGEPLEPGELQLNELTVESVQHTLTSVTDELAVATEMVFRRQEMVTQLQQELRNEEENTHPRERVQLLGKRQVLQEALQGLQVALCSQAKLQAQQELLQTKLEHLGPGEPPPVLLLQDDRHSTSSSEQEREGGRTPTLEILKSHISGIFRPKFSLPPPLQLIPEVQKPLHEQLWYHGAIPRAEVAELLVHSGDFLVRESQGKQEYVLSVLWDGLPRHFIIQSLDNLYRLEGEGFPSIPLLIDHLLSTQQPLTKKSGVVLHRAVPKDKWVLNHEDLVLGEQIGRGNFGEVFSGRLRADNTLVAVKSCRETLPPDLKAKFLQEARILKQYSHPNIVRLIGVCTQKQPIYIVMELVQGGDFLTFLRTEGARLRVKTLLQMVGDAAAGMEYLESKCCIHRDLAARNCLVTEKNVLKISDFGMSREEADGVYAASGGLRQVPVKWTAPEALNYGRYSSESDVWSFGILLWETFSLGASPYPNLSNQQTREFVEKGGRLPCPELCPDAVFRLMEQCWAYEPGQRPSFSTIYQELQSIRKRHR
# Test Name: phosphorylation enrichment, bacterial display (enrichment ratio); higher = better substrate or ligand; peptides without Tyr show the background
Measurement Type: phosphorylation enrichment
Number only, no unit.

>>> reading("LVLIKYLPEWT [PSEN1_Y240_F237L]")
1.43
>>> reading("SSQAHYRLSAF [ADAMTS9_Y100]")
0.584
>>> reading("VVHGSYDEIEG [SEC24A_Y263_S261G]")
0.9
>>> reading("FTFDPYSEEDP [IL2RB_Y387_YF]")
1.23

Please look at this sequence and report its phosphorylation enrichment: GKSFTYAAFHA [KCNT1_Y563]
0.812

Input EEQKKYYNAMK [SCN5A_Y1494] , output reported phosphorylation enrichment.
0.771

Check the records and state phosphorylation enrichment for VPLLEYYRDIF [CDAN1_Y712]
1.24

Supply recorded phosphorylation enrichment for SVKVFYKKCWS [EPHA7_Y202_YF] here.
1.49

Name the recorded phosphorylation enrichment of the item EPTPGYEVSQR [TSC2_Y1788_G1791S] in your answer.
0.888

State, in one line, measured phosphorylation enrichment of RHPYFYAPELL [ALB_Y174]
1.19

In one line, give reported phosphorylation enrichment of the entry DTMQTYNGNDE [TSPAN7_Y131_A127T] .
1.17

# return recorded phosphorylation enrichment for input NKKYHYRELPV [ERN2_Y860_H858Y]
0.502

For the sequence GSRGKCSSGFR [ATM_Y332_Y332C] , give its reported phosphorylation enrichment.
0.558

Query phosphorylation enrichment for QNTGDDFDLFG [PTPN11_Y62_Y62D_YF]
1.75

Note phosphorylation enrichment for the sequence shown: TQFWLYFAGNL [SLC25A5_Y112]
1.57

Fill in phosphorylation enrichment for record EKQVAYCPSGR [ROS1_Y2323_K2328R]
1.18

Report measured phosphorylation enrichment; entry is PTFKHYANSTQ [SLC12A3_Y70_E68K_YF]
0.774
